- PROCEDURE SUMMARY: Liver concentration in C57BL/6J mouse after 5 days at 100 mg/kg/day
- Type: ADME, organism-based
- CONDITION NOTES: read-out: Drug uptake
OBSERVED PROPERTY: concentration at 120 h (ng/g)
Answer with a number only, understood to be in ng/g.

> print(dat)
                                   compound       observed.property  reading
1  CCN(c1ccc(C(O)(C(F)(F)F)C(F)(F)F)cc1)C(C)(C(=O)OC)c1ccccc1 (racemic)  concentration at 120 h     6300

Moving on to another compound below.
Request: Read off the recorded concentration at 120 h for CCN(Cc1ccccc1)c1ccc(C(O)(C(F)(F)F)C(F)(F)F)cc1Cl
Response: 13000
